assay: Inhibition of Mycobacterium phlei DSM-43239 C-terminal ATP-synthase assessed as reduction in luciferase activity incubated for 10 mins in presence of ATP by luminometric method; set-up: species or system Mycolicibacterium phlei DSM 43239 = CCUG 21000
measuredAttribute: IC50

Task: Looking for the measured IC50 of COc1nc2ccc(Br)cc2cc1[C@@H](c1ccccc1)[C@@](O)(CCN(C)C)c1cccc2ccccc12 , can you help?
Result: 20 to 25 nM
